Source listed as the supplement of paper PMC9112550.

- System: Escherichia coli TOP10
- MEASUREMENT_PROTOCOL: shrunken log2 fold change of peptide-encoding DNA abundance (4.5 h post-induction vs induction); higher = less antimicrobial activity (less host growth inhibition)
- CONDITIONS_USED: time post-induction: 4.5 h; library: site-saturation at positions 5, 18, 19, 20
QUANTITY_KIND: shrunken log2 fold change
Format: numeric value only, no unit, no commentary.

Study these solved cases before continuing.
* RRIRKRPPRLPRPRPRPRTVPRP | 0.244
* RRIRPRPPRLPRPRPRPWPTPRP | 0.438
* RRIRLRPPRLPRPRPRPARPPRP | 0.449
* RRIRGRPPRLPRPRPRPSTIPRP | 0.235
* RRIRKRPPRLPRPRPRPGLAPRP | 0.977

Please find the next sequence below.
Problem: Write down shrunken log2 fold change measured for item RRIRTRPPRLPRPRPRPCIQPRP
Result: 0.0196

* * *

- Tested on: Escherichia coli TOP10
- MEASUREMENT_PROTOCOL: shrunken log2 fold change of peptide-encoding DNA abundance (4.5 h post-induction vs induction); higher = less antimicrobial activity (less host growth inhibition)
- CONDITIONS_USED: time post-induction: 4.5 h; library: site-saturation at positions 5, 18, 19, 20
shrunken log2 fold change by entry:

- RRIRSRPPRLPRPRPRPYRRPRP: -0.0841

Problem: Write down shrunken log2 fold change measured for item RRIRYRPPRLPRPRPRPSGEPRP
Result: -0.187

Problem: Write down shrunken log2 fold change measured for item RRIRWRPPRLPRPRPRPNIHPRP
Result: -0.392

Problem: Write down shrunken log2 fold change measured for item RRIRFRPPRLPRPRPRPRHPPRP
Result: 0.0568

* * *

shrunken log2 fold change by entry:
- System: Escherichia coli TOP10
- MEASUREMENT_PROTOCOL: shrunken log2 fold change of peptide-encoding DNA abundance (4.5 h post-induction vs induction); higher = less antimicrobial activity (less host growth inhibition)
- CONDITIONS_USED: time post-induction: 4.5 h; library: site-saturation at positions 5, 18, 19, 20
Format: numeric value only, no unit, no commentary.

* RRIRVRPPRLPRPRPRPDEPPRP | 0.225
* RRIRIRPPRLPRPRPRPHCRPRP | -0.341
* RRIRVRPPRLPRPRPRPPFDPRP | 0.199

Problem: Write down shrunken log2 fold change measured for item RRIRLRPPRLPRPRPRPAVQPRP
Result: -0.249

Problem: Write down shrunken log2 fold change measured for item RRIRKRPPRLPRPRPRPTEIPRP
Result: 0.162

Problem: Write down shrunken log2 fold change measured for item RRIRFRPPRLPRPRPRPNLTPRP
Result: -0.347

* * *

- Tested on: Escherichia coli TOP10
- MEASUREMENT_PROTOCOL: shrunken log2 fold change of peptide-encoding DNA abundance (4.5 h post-induction vs induction); higher = less antimicrobial activity (less host growth inhibition)
- CONDITIONS_USED: time post-induction: 4.5 h; library: site-saturation at positions 5, 18, 19, 20
shrunken log2 fold change class ranges: lo: < -0.2; mid: ≥ -0.2 and < 0.09; hi: ≥ 0.09

Here's what some known entries look like.
- RRIRFRPPRLPRPRPRPNCKPRP: mid
- RRIRSRPPRLPRPRPRPDPQPRP: hi
- RRIRERPPRLPRPRPRPRSMPRP: lo
- RRIRMRPPRLPRPRPRPGRHPRP: hi
- RRIRARPPRLPRPRPRPRVFPRP: hi

Problem: Band for RRIRLRPPRLPRPRPRPWRQPRP ?
Result: mid

Problem: Band for RRIRPRPPRLPRPRPRPIPVPRP ?
Result: lo

Problem: Band for RRIRYRPPRLPRPRPRPENLPRP ?
Result: hi

Problem: Band for RRIRLRPPRLPRPRPRPHYYPRP ?
Result: lo

Problem: Band for RRIRARPPRLPRPRPRPHYEPRP ?
Result: lo

Problem: Band for RRIRVRPPRLPRPRPRPFPIPRP ?
Result: lo

Problem: Band for RRIRGRPPRLPRPRPRPLENPRP ?
Result: hi

Problem: Band for RRIRDRPPRLPRPRPRPYYDPRP ?
Result: lo

Problem: Band for RRIRYRPPRLPRPRPRPTDRPRP ?
Result: mid

Problem: Band for RRIRLRPPRLPRPRPRPHQEPRP ?
Result: mid

* * *

- Test system: Escherichia coli TOP10
- MEASUREMENT_PROTOCOL: shrunken log2 fold change of peptide-encoding DNA abundance (4.5 h post-induction vs induction); higher = less antimicrobial activity (less host growth inhibition)
- CONDITIONS_USED: time post-induction: 4.5 h; library: site-saturation at positions 5, 18, 19, 20
shrunken log2 fold change by entry:
Format: numeric value only, no unit, no commentary.

Problem: Write down shrunken log2 fold change measured for item RRIRARPPRLPRPRPRPCRWPRP
Result: 0.26

Problem: Write down shrunken log2 fold change measured for item RRIRLRPPRLPRPRPRPPWLPRP
Result: 0.439

* * *

- Tested on: Escherichia coli TOP10
- MEASUREMENT_PROTOCOL: shrunken log2 fold change of peptide-encoding DNA abundance (4.5 h post-induction vs induction); higher = less antimicrobial activity (less host growth inhibition)
- CONDITIONS_USED: time post-induction: 4.5 h; library: site-saturation at positions 5, 18, 19, 20
Threshold rule: shrunken log2 fold change greater than or equal to -0.02 is yes (1); below that, no (0).

Here's what some known entries look like.
* RRIRWRPPRLPRPRPRPPATPRP | yes (1)
* RRIRCRPPRLPRPRPRPVTHPRP | no (0)
* RRIRGRPPRLPRPRPRPNMDPRP | yes (1)

Problem: Check this sequence for shrunken log2 fold change at or above -0.02: RRIRNRPPRLPRPRPRPPDRPRP
Result: yes (1)

Problem: Check this sequence for shrunken log2 fold change at or above -0.02: RRIRTRPPRLPRPRPRPGITPRP
Result: no (0)

Problem: Check this sequence for shrunken log2 fold change at or above -0.02: RRIRCRPPRLPRPRPRPWAFPRP
Result: no (0)

Problem: Check this sequence for shrunken log2 fold change at or above -0.02: RRIRYRPPRLPRPRPRPDRNPRP
Result: yes (1)

Problem: Check this sequence for shrunken log2 fold change at or above -0.02: RRIRLRPPRLPRPRPRPPRLPRP
Result: yes (1)

Problem: Check this sequence for shrunken log2 fold change at or above -0.02: RRIRRRPPRLPRPRPRPDQRPRP
Result: no (0)

Problem: Check this sequence for shrunken log2 fold change at or above -0.02: RRIRVRPPRLPRPRPRPKGTPRP
Result: no (0)

Problem: Check this sequence for shrunken log2 fold change at or above -0.02: RRIRYRPPRLPRPRPRPKEAPRP
Result: yes (1)

Problem: Check this sequence for shrunken log2 fold change at or above -0.02: RRIRHRPPRLPRPRPRPDSPPRP
Result: yes (1)

Problem: Check this sequence for shrunken log2 fold change at or above -0.02: RRIRWRPPRLPRPRPRPKGNPRP
Result: yes (1)

Problem: Check this sequence for shrunken log2 fold change at or above -0.02: RRIRNRPPRLPRPRPRPDYAPRP
Result: no (0)

* * *

- System: Escherichia coli TOP10
- MEASUREMENT_PROTOCOL: shrunken log2 fold change of peptide-encoding DNA abundance (4.5 h post-induction vs induction); higher = less antimicrobial activity (less host growth inhibition)
- CONDITIONS_USED: time post-induction: 4.5 h; library: site-saturation at positions 5, 18, 19, 20
shrunken log2 fold change class ranges: Low = under -0.07, Medium = from -0.07 up to 0.1, High = 0.1 and over

Here's what some known entries look like.
- RRIRKRPPRLPRPRPRPCLAPRP: High
- RRIRQRPPRLPRPRPRPDIEPRP: Low
- RRIRKRPPRLPRPRPRPHEHPRP: Medium
- RRIRSRPPRLPRPRPRPNGAPRP: Low
- RRIRMRPPRLPRPRPRPLPAPRP: High

Problem: Band for RRIRYRPPRLPRPRPRPDCNPRP ?
Result: Low

Problem: Band for RRIRDRPPRLPRPRPRPPNIPRP ?
Result: Low

Problem: Band for RRIRYRPPRLPRPRPRPLVMPRP ?
Result: Low

Problem: Band for RRIRWRPPRLPRPRPRPKSNPRP ?
Result: Low

Problem: Band for RRIRLRPPRLPRPRPRPTQEPRP ?
Result: Medium

* * *

- Tested on: Escherichia coli TOP10;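 note: peptides expressed intracellularly from a pBAD plasmid library in pooled LB shake-flask culture, induced with 0.3% L-arabinose, DNA abundance read by NGS, three biological replicates, DESeq2 with apeglm shrinkage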
- MEASUREMENT_PROTOCOL: shrunken log2 fold change of peptide-encoding DNA abundance (4.5 h post-induction vs induction); higher = less antimicrobial activity (less host growth inhibition)
- CONDITIONS_USED: time post-induction: 4.5 h; library: site-saturation at positions 5, 18, 19, 20
QUANTITY_KIND: shrunken log2 fold change

Study these solved cases before continuing.
- RRIRIRPPRLPRPRPRPIGFPRP: 0.0766
- RRIRTRPPRLPRPRPRPYQNPRP: -0.3
- RRIRPRPPRLPRPRPRPVHGPRP: 0.0843
- RRIRFRPPRLPRPRPRPCKDPRP: -0.198
- RRIRVRPPRLPRPRPRPHFRPRP: -0.0776
- RRIRIRPPRLPRPRPRPHISPRP: -0.0489

Problem: Give measured shrunken log2 fold change for RRIRIRPPRLPRPRPRPGHIPRP (Escherichia coli TOP10).
Result: -0.327

Problem: Give measured shrunken log2 fold change for RRIRMRPPRLPRPRPRPFEAPRP (Escherichia coli TOP10).
Result: 0.655

Problem: Give measured shrunken log2 fold change for RRIRCRPPRLPRPRPRPGYQPRP (Escherichia coli TOP10).
Result: -0.06

Problem: Give measured shrunken log2 fold change for RRIRYRPPRLPRPRPRPSNRPRP (Escherichia coli TOP10).
Result: -0.134

Problem: Give measured shrunken log2 fold change for RRIRHRPPRLPRPRPRPKTPPRP (Escherichia coli TOP10).
Result: 0.155

Problem: Give measured shrunken log2 fold change for RRIRHRPPRLPRPRPRPNYRPRP (Escherichia coli TOP10).
Result: -0.103

Problem: Give measured shrunken log2 fold change for RRIRYRPPRLPRPRPRPEAQPRP (Escherichia coli TOP10).
Result: 0.151

Problem: Give measured shrunken log2 fold change for RRIRSRPPRLPRPRPRPMATPRP (Escherichia coli TOP10).
Result: 0.0201

Problem: Give measured shrunken log2 fold change for RRIRMRPPRLPRPRPRPYFYPRP (Escherichia coli TOP10).
Result: -0.53
